B1: CHMP4C (parent)
chain: TNIRLPNVPSSSLPAQPNRKPGMS

variants of: B1; experiment: protein stability index of a GFP-peptide fusion (GPS, HEK-293T) (PSI 1-6); higher = more stable; details: c terminus: a fixed tail appended;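 further: lentivirally expressed fusions sorted by FACS into six bins by GFP to DsRed ratio, PSI derived from sequencing read proportions per bin multiplied by bin number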
Listing of recorded protein stability index by entry.
PROPERTY LABEL: protein stability index

| SEQUENCE CONTENT | READING |
| --- | --- |
| TNIRLPNVPSSGLPAQPNRKPGMS [S12G] | 4.27 |
| TNIRLPNVPSSSLPAQPNRKPGMR [S24R] | 4.67 |
| TNIRLPNVPSSSLPAQWNRKPGMS [P17W] | 3.64 |
| TNIRLPNVPSLSLPAQPNRKPGMS [S11L] | 4.01 |
| TNIRLPNVPSSSLPAQRNRKPGMS [P17R] | 4.2 |
| TNKRLPNVPSSSLPAQPNRKPGMS [I3K] | 3.99 |
| TNIRLPNVPSSSLPAQPNRKPYMS [G22Y] | 4.01 |
| TNIRLPNVPSRSLPAQPNRKPGMS [S11R] | 4.79 |
| TNIRLPNVPCSSLPAQPNRKPGMS [S10C] | 4.83 |
| TNIRLYNVPSSSLPAQPNRKPGMS [P6Y] | 2.66 |
| TNIRCPNVPSSSLPAQPNRKPGMS [L5C] | 4.92 |
| TNIRLPNVPDSSLPAQPNRKPGMS [S10D] | 4.84 |
| TNIRLPNVPSSSLPEQPNRKPGMS [A15E] | 4.64 |
| TNIRLPNVPSSSLPAQPNNKPGMS [R19N] | 4.69 |
| TNIRLMNVPSSSLPAQPNRKPGMS [P6M] | 3.36 |
| TNIRLPNVPSSRLPAQPNRKPGMS [S12R] | 4.51 |
| TNIRLPNVPSSSLPAQPNRRPGMS [K20R] | 4.4 |
| TNIRLPNVPSSSLPAQPNRKPNMS [G22N] | 5.03 |
| TWIRLPNVPSSSLPAQPNRKPGMS [N2W] | 3.01 |
| TYIRLPNVPSSSLPAQPNRKPGMS [N2Y] | 3.51 |
| TNIRVPNVPSSSLPAQPNRKPGMS [L5V] | 4.7 |
| TNIRLPNVPSSSLMAQPNRKPGMS [P14M] | 4.47 |
| TNIRLPNVPSSSLPALPNRKPGMS [Q16L] | 4.32 |
| TNIRLPNVPSSSLPAQPNRKRGMS [P21R] | 4.94 |
| TNIRLPNVPSSSLPAQPVRKPGMS [N18V] | 4.6 |
| TNIRLPNVPSSSLPAQPNRAPGMS [K20A] | 4.43 |
| VNIRLPNVPSSSLPAQPNRKPGMS [T1V] | 3.62 |
| TNIRLPNVPSSSLPAFPNRKPGMS [Q16F] | 4.05 |
| TNIRLPGVPSSSLPAQPNRKPGMS [N7G] | 4.76 |
| TNIRLPNVPSSSLFAQPNRKPGMS [P14F] | 4.22 |
| TNIRLPNVPSSMLPAQPNRKPGMS [S12M] | 4.33 |
| TNIRLPNVPSSSLPAQPNVKPGMS [R19V] | 4.71 |
| TNIRLPNVPSSSLPAQPNRKMGMS [P21M] | 4.32 |
| TNIRLPNVPSSSLPASPNRKPGMS [Q16S] | 4.91 |
| TNIRLPNVPSESLPAQPNRKPGMS [S11E] | 4.1 |
| TGIRLPNVPSSSLPAQPNRKPGMS [N2G] | 4.24 |
| TNIRLPNVPSSSLPAQPWRKPGMS [N18W] | 3.42 |
| TNIRLPNVPSSSLPAQPNRKPGLS [M23L] | 4.88 |
| TNIRLINVPSSSLPAQPNRKPGMS [P6I] | 2.71 |
| TNIRLPNVPSSSLPAQPNRKPGRS [M23R] | 4.04 |
| TNIRLPNVPSSSLPAQPNRKPGKS [M23K] | 4.37 |
| TNIRLPNVPSSSLPAQPNRKPGYS [M23Y] | 4.7 |
| TNIRLPNVPSSSLPAQPFRKPGMS [N18F] | 4.33 |
| TNIRLPNVPSSSLPAQVNRKPGMS [P17V] | 4.67 |
| TNIRLPNVPSSTLPAQPNRKPGMS [S12T] | 4.07 |
| TNIRLPNVPSSSLPAQPNRKPGNS [M23N] | 5.13 |
| TNIRLPNVPSSCLPAQPNRKPGMS [S12C] | 4.18 |
| TNIRLPNVPLSSLPAQPNRKPGMS [S10L] | 4.09 |
| TNIRLPNVPSSSLPTQPNRKPGMS [A15T] | 4.55 |
| TNIRLPNVPSSSLPACPNRKPGMS [Q16C] | 4.39 |
| TNIREPNVPSSSLPAQPNRKPGMS [L5E] | 4.46 |
| TNIRLPNMPSSSLPAQPNRKPGMS [V8M] | 4.61 |
| TNIRLPNVPSSSLPAQPNRKYGMS [P21Y] | 4.05 |
| TIIRLPNVPSSSLPAQPNRKPGMS [N2I] | 3.44 |
| TNIRLPNVPSSSLPAQPNRKPPMS [G22P] | 4.24 |
| TNIRLPNVPSSSLPAQPNRKPGMT [S24T] | 4.62 |
| TNIRLPNVPSSSLPAQPNRKPGTS [M23T] | 5.17 |
| TNIRLPNVGSSSLPAQPNRKPGMS [P9G] | 4.52 |
| TNIRLPNVPSSSLPAQPNRKTGMS [P21T] | 4.47 |
| TNIRLPNTPSSSLPAQPNRKPGMS [V8T] | 4.69 |
| TNIRLPNVPSSSLPAQPNRKVGMS [P21V] | 4.14 |

Just for reference, the supplement of paper PMC10567573 is where these values come from.
